Assign NADPH fluorescence slope to each entry below.
- STUDY_SYSTEM: Voltage-gated potassium channel subunit beta-2 (Rattus norvegicus)
- METHOD_SUMMARY: enhancers of rat Kvbeta2 NADPH turnover – biochemical, NADPH fluorescence, primary screen (AID 623);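 note: fluorescence intensity change per second fitted from 20 to 320 s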
- STATED_CONDITIONS: Recombinant KvBeta, NADPH fluorescence decrease slope, 10 min; at 10 µM; active compounds read low
Answers are plain numbers.

Example cases with answers are listed next.
[[record]]
compound = "COc1cc(CN(C)CC(=O)c2[nH]c(C)c(C(C)=O)c2C)ccc1OC(F)F"
measured_property = "NADPH fluorescence slope"
observed_measurement = "-2.3e-05"

[[record]]
compound = "NC(=O)c1sc2nc3c(c(-c4ccco4)c2c1N)CCC3"
measured_property = "NADPH fluorescence slope"
observed_measurement = "-6.5e-05"

[[record]]
compound = "CCOC(=O)N1CCN(S(=O)(=O)c2ccc(F)c(C(=O)Nc3cc(C)cc(C)c3)c2)CC1"
measured_property = "NADPH fluorescence slope"
observed_measurement = "-1.2e-05"

[[record]]
compound = "O=C(Nc1ccncc1)C1CCCN(S(=O)(=O)c2cccc3cccnc23)C1 (stereo unspecified)"
measured_property = "NADPH fluorescence slope"
observed_measurement = "-3.9e-05"

[[record]]
compound = "CCCCS(=O)(=O)NC1=NCN(CCOC(=O)c2ccccc2)CN1"
measured_property = "NADPH fluorescence slope"
observed_measurement = "-4.1e-05"


Here are 6 compounds. What values of NADPH fluorescence slope were reported for them?
1. COc1ccc(-n2nnnc2SCC(=O)c2ccc(O)c(O)c2)cc1
2. Cc1nnc(NC(=O)c2ccco2)s1
3. CCCSC1=C(C#N)C(c2cc(OC)ccc2OC)CC(=O)N1 (stereo unspecified)
4. C(=N/n1c2ccccc2c2ccccc21)/c1ccco1
5. Cc1ccc(-n2nnnc2SCC(=O)c2cc(C)n(CC3CCCO3)c2C)cc1 (stereo unspecified)
6. CCOc1ccccc1N(CC(=O)N1CCOCC1)S(=O)(=O)c1ccccc1

[-0.000117, "-3.3e-05", "-4.2e-05", -0.000138, "3.2e-05", "-3e-06"]

====

- METHOD_SUMMARY: TLR3 IRF3 reporter activation blockers – cell-based, poly I:C stimulus, luciferase, 10K MLSCN set, primary screen (AID 602277)
- STATED_CONDITIONS: HEK293-TLR3 RL24 IRF3 luciferase reporter, at 10 µM, active compounds read high
Please mark yes (1) if the recorded inhibition is equal to or greater than 20%, and no (0) if it falls below.

Worked examples, 5 compounds total:
[[record]]
compound = "COc1ccc(CCNC(=O)C2=COCCO2)cc1"
assigned_label = "no (0)"

[[record]]
compound = "CC(C)CCNC(=O)NC(=O)COc1ccccc1C#N"
assigned_label = "no (0)"

[[record]]
compound = "N#Cc1c(NC(=O)c2ccc(Br)o2)n(-c2ccccc2)c2nc3ccccc3nc12"
assigned_label = "no (0)"

[[record]]
compound = "COc1cc(C2c3c(oc4ccccc4c3=O)C(=O)N2c2ccc(C)cn2)ccc1O (stereo not drawn)"
assigned_label = "no (0)"

[[record]]
compound = "c1ccc(CNc2c3c(nc4ncnn24)CCCC3)nc1"
assigned_label = "no (0)"


Kindly determine if inhibition recorded for Cc1ccc(-n2nc(C)c3cc(C(=O)O)sc32)cc1 is above or exactly 20%.
yes (1)

Kindly determine if inhibition recorded for CC(=O)NC(Cc1ccc(C)cc1)C(=O)NC1CCN(C(=O)c2cnccn2)CC1 (stereo not drawn) is above or exactly 20%.
no (0)

Kindly determine if inhibition recorded for O=C(Nc1nnc(CCN2CCCCC2)s1)C1CCCCC1 is above or exactly 20%.
no (0)

Kindly determine if inhibition recorded for Cc1cccc(C2CC(c3ccc(Cl)cc3)Nc3nc(N)nn32)c1 (stereo not drawn) is above or exactly 20%.
yes (1)

Kindly determine if inhibition recorded for CC(=O)C1=C(C)Nc2ncnn2C1c1cccc(OCc2ccccc2)c1 (stereo not drawn) is above or exactly 20%.
yes (1)
